System: EPHHL = wild poinsettia (Euphorbia heterophylla)
ASSAY_PROCEDURE: Postemergence herbicidal activity, wild poinsettia
Type: in vivo
MEASUREMENT_CONTEXT: post-emergence, 336 h, post-emergent, rate 140 g ai/ha, visual score after 14 days (0 no injury, 100 complete kill), read-out: % Growth Reduction EPHHL
PROPERTY_MEASURED: pest or weed control at 140 g/ha (%)

INSERT INTO assay_data (compound, value_observed) VALUES
  ('COC(=O)c1nc(-c2ccc(Cl)c(F)c2)c(F)c(N)c1/C=C/[Si](C)(C)C [Compound 11]', 80),
  ('COc1c(Cl)ccc(-c2nc(N)c(/C=C/[Si](C)(C)C)c(C(=O)O)n2)c1F [Compound 6]', 100),
  ('CCO[Si](/C=C/c1c(N)nc(-c2ccc(Cl)c(OC)c2F)nc1C(=O)OC)(OCC)OCC [Compound 9]', 100),
  ('COC(=O)c1nc(-c2ccc(Cl)cc2F)nc(N)c1/C=C/[Si](C)(C)C [Compound 3]', 100),
  ('COc1c(Cl)ccc(-c2nc(N)c(/C=C/[Si](O)(O)O)c(C(=O)O)n2)c1F [Compound 10]', 100),
  ('C[Si](C)(C)/C=C/c1c(C(=O)O)nc(-c2ccc(Cl)c(F)c2)c(F)c1N [Compound 14]', 100),
  ('CCOC(=O)c1nc(C2CC2)nc(N)c1/C=C/[Si](C)(C)C [Compound 4]', 100),
  ('COC(=O)c1nc(-c2ccc(Cl)cc2)c(F)c(N)c1/C=C/[Si](C)(C)C [Compound 12]', 80),
  ('COC(=O)c1nc(-c2ccc(Cl)c(OC)c2F)nc(N)c1/C=C/[Si](C)(C)C [Compound 2]', 100),
  ('COC(=O)c1nc(-c2ccc(Cl)c(F)c2F)nc(N)c1/C=C/[Si](C)(C)C [Compound 1]', 50),
  ('C[Si](C)(C)/C=C/c1c(C(=O)O)nc(-c2ccc(Cl)cc2)c(F)c1N [Compound 15]', 90),
  ('C[Si](C)(C)/C=C/c1c(N)nc(-c2ccc(Cl)c(F)c2F)nc1C(=O)O [Compound 5]', 100),
  ('C[Si](C)(C)/C=C/c1c(N)nc(-c2ccc(Cl)cc2F)nc1C(=O)O [Compound 7]', 100);

----------
Quick reference for pest or weed control at 140 g/ha among some molecules
Test system: AMARE = redroot pigweed (Amaranthus retroflexus)
ASSAY_PROCEDURE: Postemergence herbicidal activity, redroot pigweed
Assay type: in vivo
MEASUREMENT_CONTEXT: post-emergence, 336 h, post-emergent, rate 140 g ai/ha, visual score after 14 days (0 no injury, 100 complete kill), read-out: % Growth Reduction AMARE
PROPERTY_MEASURED: pest or weed control at 140 g/ha (%)

INSERT INTO assay_data (structure_smiles, reading_unit, value_observed) VALUES
  ('COC(=O)c1nc(-c2ccc(Cl)cc2F)nc(N)c1/C=C/[Si](C)(C)C', '%', 100),
  ('COc1c(Cl)ccc(-c2nc(N)c(/C=C/[Si](C)(C)C)c(C(=O)O)n2)c1F', '%', 100),
  ('COC(=O)c1nc(-c2ccc(Cl)cc2)c(F)c(N)c1/C=C/[Si](C)(C)C', '%', 75),
  ('COC(=O)c1nc(-c2ccc(Cl)c(F)c2F)nc(N)c1/C=C/[Si](C)(C)C', '%', 100),
  ('C[Si](C)(C)/C=C/c1c(C(=O)O)nc(-c2ccc(Cl)cc2)c(F)c1N', '%', 100),
  ('COC(=O)c1nc(-c2ccc(Cl)c(F)c2)c(F)c(N)c1/C=C/[Si](C)(C)C', '%', 100),
  ('C[Si](C)(C)/C=C/c1c(N)nc(-c2ccc(Cl)cc2F)nc1C(=O)O', '%', 100),
  ('C[Si](C)(C)/C=C/c1c(N)nc(-c2ccc(Cl)c(F)c2F)nc1C(=O)O', '%', 90),
  ('COC(=O)c1nc(-c2ccc(Cl)c(OC)c2F)nc(N)c1/C=C/[Si](C)(C)C', '%', 100);

Cited source for all entries: patent US8658568B2
